The molecules listed here are annotated with their kinase still bound, per cent of control.
Target: FYN (human)
Test: KINOMEscan competition binding
Conditions: compound 10.0 µM
A complete answer gives the number followed by the unit.

{"smiles-notation": "C=CC(=O)Nc1ccc(C(=O)c2sc(Nc3ccc(N4CCN(C)CC4)cc3OC)nc2N)cc1", "kinase still bound, per cent of control": "83%"}
{"smiles-notation": "CC(=O)c1c(C)c2cnc(Nc3ccc(N4CCNCC4)cn3)nc2n(C2CCCC2)c1=O", "kinase still bound, per cent of control": "100%"}
{"smiles-notation": "CCN1CCN(Cc2ccc(NC(=O)c3ccc(C)c(/C=C/c4cnc5[nH]ccc5c4OC)c3)cc2C(F)(F)F)CC1", "kinase still bound, per cent of control": "1.2%"}

Let us examine a further case.
# input For the molecule COc1cc(N2CCC(C(N)=O)CC2)ccc1Nc1nc(N)c(Cl)c(Nc2ccccc2S(=O)(=O)C(C)C)n1 , report kinase still bound, per cent of control.
# output 100%

====

Target: WEE2 (human)
Assay: KINOMEscan competition binding
Settings: compound 10.0 µM
The compounds listed here are annotated with their kinase still bound, per cent of control.
The reply should contain only the number, in %.

Observe how each entry below is paired with its result.
{"compound": "CCCS(=O)(=O)Nc1ccc(F)c(C(=O)c2c[nH]c3ncc(Cl)cc23)c1F", "kinase still bound, per cent of control (%)": 100}
{"compound": "CC(=O)c1c(C)c2cnc(Nc3ccc(N4CCNCC4)cn3)nc2n(C2CCCC2)c1=O", "kinase still bound, per cent of control (%)": 75}
{"compound": "COc1cc2ncnc(Nc3cccc(Cl)c3)c2cc1OC", "kinase still bound, per cent of control (%)": 81}
{"compound": "C=CC(=O)Nc1ccc(C(=O)c2sc(Nc3ccc(N4CCN(C)CC4)cc3OC)nc2N)cc1", "kinase still bound, per cent of control (%)": 100}

Let us examine a further case.
# input Report measured kinase still bound, per cent of control on WEE2 (human); entry: COc1cc(C)c(Sc2cnc(NC(=O)c3ccc(CNC(C)C(C)C)cc3)s2)cc1C(=O)N1CCN(C(C)=O)CC1 (stereo not given)
# output 3.6

====

The compounds listed here are annotated with their kinase still bound, per cent of control.
Molecular target: UniProt P49674
Sequence (P49674 whole entry, looked up): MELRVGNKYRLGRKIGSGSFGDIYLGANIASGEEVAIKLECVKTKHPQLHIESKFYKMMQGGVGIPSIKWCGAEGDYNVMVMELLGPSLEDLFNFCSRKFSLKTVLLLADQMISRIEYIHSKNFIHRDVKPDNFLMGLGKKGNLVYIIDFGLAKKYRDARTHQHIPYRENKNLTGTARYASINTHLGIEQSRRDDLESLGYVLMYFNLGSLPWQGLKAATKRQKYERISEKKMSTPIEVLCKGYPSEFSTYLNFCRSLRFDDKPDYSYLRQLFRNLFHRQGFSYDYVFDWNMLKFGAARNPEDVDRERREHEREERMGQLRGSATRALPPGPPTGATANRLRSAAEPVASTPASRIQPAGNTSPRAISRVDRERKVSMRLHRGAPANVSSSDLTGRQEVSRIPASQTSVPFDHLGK
Experiment: KINOMEscan competition binding
Details: compound 10.0 µM
The reply should contain only the number, in %.

{"compound": "CCN1CCN(Cc2ccc(NC(=O)c3ccc(C)c(/C=C/c4cnc5[nH]ccc5c4OC)c3)cc2C(F)(F)F)CC1", "measurement": 45}
{"compound": "COc1cc(C)c(Sc2cnc(NC(=O)c3ccc(CNC(C)C(C)C)cc3)s2)cc1C(=O)N1CCN(C(C)=O)CC1 (stereo not given)", "measurement": 100}
{"compound": "COc1cc(N2CCC(C(N)=O)CC2)ccc1Nc1nc(N)c(Cl)c(Nc2ccccc2S(=O)(=O)C(C)C)n1", "measurement": 34}
{"compound": "CC(=O)c1c(C)c2cnc(Nc3ccc(N4CCNCC4)cn3)nc2n(C2CCCC2)c1=O", "measurement": 16}

Let us examine a further case.
# input For the compound N#C/C(=C1/Nc2ccccc2S1)c1ccnc(NCCc2cccnc2)n1 , report kinase still bound, per cent of control.
# output 60

====

Molecular target: NTRK3 (human) (UniProt Q16288)
Sequence (Q16288 whole entry, looked up): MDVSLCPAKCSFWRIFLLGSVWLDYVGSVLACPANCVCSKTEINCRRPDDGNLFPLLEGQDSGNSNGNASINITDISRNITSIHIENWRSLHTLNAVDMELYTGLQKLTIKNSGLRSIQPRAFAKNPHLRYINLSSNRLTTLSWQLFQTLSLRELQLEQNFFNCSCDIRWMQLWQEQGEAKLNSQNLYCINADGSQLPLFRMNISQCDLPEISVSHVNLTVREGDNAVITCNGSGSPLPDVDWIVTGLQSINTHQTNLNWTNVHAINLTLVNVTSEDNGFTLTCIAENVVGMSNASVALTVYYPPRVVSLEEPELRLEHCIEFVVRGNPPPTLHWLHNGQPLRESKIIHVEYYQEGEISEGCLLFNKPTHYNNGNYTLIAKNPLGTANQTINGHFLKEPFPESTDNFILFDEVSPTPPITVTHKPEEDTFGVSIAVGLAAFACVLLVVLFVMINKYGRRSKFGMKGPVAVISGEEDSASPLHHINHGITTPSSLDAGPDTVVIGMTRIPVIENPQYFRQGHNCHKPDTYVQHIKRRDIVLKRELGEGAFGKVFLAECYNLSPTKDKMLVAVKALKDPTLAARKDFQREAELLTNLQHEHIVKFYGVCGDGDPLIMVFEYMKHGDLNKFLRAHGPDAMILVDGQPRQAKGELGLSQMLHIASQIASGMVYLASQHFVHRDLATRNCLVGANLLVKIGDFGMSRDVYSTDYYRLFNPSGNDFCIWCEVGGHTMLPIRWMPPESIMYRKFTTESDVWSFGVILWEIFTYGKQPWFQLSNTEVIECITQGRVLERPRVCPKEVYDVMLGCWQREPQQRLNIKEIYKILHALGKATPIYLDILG
Assay: KINOMEscan competition binding
Settings: compound 10.0 µM
The compounds listed here are annotated with their kinase still bound, per cent of control.
The reply should contain only the number, in %.

{"compound": "COc1cc(C)c(Sc2cnc(NC(=O)c3ccc(CNC(C)C(C)C)cc3)s2)cc1C(=O)N1CCN(C(C)=O)CC1 (stereo not drawn)", "target-under-test": "NTRK3 (human) (UniProt Q16288)", "quantity-unit": "%", "kinase still bound, per cent of control": 100}
{"compound": "COc1cc2ncnc(Nc3cccc(Cl)c3)c2cc1OC", "target-under-test": "NTRK3 (human) (UniProt Q16288)", "quantity-unit": "%", "kinase still bound, per cent of control": 87}

# input For the compound CC1=C(C(=O)Nc2cc3cn[nH]c3cc2F)C(c2ccc(C(F)(F)F)cc2)CC(=O)N1 (stereo not drawn) , report kinase still bound, per cent of control.
# output 100

# input For the compound CCN1CCN(Cc2ccc(NC(=O)c3ccc(C)c(/C=C/c4cnc5[nH]ccc5c4OC)c3)cc2C(F)(F)F)CC1 , report kinase still bound, per cent of control.
# output 0.95

# input For the compound COc1ccc(N(C(=O)Oc2cc(C(=O)Nc3cccc(C(F)(F)F)c3)ccc2C)c2ccnc(Nc3ccc(N4CCN(C)CC4)cc3)n2)c(OC)c1 , report kinase still bound, per cent of control.
# output 13

# input For the compound CC(=O)c1c(C)c2cnc(Nc3ccc(N4CCNCC4)cn3)nc2n(C2CCCC2)c1=O , report kinase still bound, per cent of control.
# output 23

# input For the compound N#Cc1cc(-c2ccnc(Nc3ccc(-n4cnc(-c5cccnc5)n4)cc3)n2)cc(N2CCOCC2)c1 , report kinase still bound, per cent of control.
# output 100

# input For the compound O=c1[nH]c2ccccc2n1C1CCN(Cc2ccc(-c3nc4cc5[nH]cnc5cc4nc3-c3ccccc3)cc2)CC1 , report kinase still bound, per cent of control.
# output 98

====

The compounds listed here are annotated with their kinase still bound, per cent of control.
Target: MERTK (human) (UniProt Q12866)
Sequence (Q12866 whole entry, looked up): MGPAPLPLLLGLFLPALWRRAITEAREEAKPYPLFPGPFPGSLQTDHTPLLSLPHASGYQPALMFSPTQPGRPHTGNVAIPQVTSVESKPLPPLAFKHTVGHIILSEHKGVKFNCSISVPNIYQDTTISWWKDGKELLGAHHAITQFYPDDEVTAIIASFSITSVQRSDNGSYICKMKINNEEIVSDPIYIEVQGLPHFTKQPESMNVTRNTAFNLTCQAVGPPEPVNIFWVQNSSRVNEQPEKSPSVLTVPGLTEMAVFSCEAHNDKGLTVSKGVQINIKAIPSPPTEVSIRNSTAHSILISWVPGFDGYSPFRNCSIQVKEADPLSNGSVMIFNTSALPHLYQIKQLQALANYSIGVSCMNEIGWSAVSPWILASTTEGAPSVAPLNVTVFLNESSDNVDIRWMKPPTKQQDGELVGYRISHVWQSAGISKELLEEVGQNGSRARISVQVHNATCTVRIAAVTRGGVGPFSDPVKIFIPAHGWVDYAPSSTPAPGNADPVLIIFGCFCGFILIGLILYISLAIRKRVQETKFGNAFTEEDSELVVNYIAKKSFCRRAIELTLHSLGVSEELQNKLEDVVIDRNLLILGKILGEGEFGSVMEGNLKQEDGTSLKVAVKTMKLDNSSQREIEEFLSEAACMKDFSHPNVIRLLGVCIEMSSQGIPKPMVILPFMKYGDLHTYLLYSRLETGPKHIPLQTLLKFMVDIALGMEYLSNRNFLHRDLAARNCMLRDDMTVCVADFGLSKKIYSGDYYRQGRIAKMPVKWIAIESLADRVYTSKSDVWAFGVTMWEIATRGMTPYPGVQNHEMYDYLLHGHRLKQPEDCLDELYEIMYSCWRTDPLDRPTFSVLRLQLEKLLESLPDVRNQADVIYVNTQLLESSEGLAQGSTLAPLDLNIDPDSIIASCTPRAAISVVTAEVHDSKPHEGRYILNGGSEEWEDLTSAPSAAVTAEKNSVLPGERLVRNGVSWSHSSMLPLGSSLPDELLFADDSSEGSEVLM
Assay: KINOMEscan competition binding
Details: compound 10.0 µM
The reply should contain only the number, in %.

Observe how each entry below is paired with its result.
{"compound": "COc1cc(N2CCC(C(N)=O)CC2)ccc1Nc1nc(N)c(Cl)c(Nc2ccccc2S(=O)(=O)C(C)C)n1", "target-under-test": "MERTK (human) (UniProt Q12866)", "kinase still bound, per cent of control, %": 32}
{"compound": "COc1cc2ncnc(Nc3cccc(Cl)c3)c2cc1OC", "target-under-test": "MERTK (human) (UniProt Q12866)", "kinase still bound, per cent of control, %": 71}
{"compound": "CCCS(=O)(=O)Nc1ccc(F)c(C(=O)c2c[nH]c3ncc(Cl)cc23)c1F", "target-under-test": "MERTK (human) (UniProt Q12866)", "kinase still bound, per cent of control, %": 94}
{"compound": "CNC(=O)Nc1ccc(-c2nc(N3CC4CCC(C3)O4)c3cnn(C4CCC5(CC4)OCCO5)c3n2)cc1", "target-under-test": "MERTK (human) (UniProt Q12866)", "kinase still bound, per cent of control, %": 87}
{"compound": "CCc1nc(-c2cccc(C)c2)c(-c2ccnc(NC(=O)c3ccccc3)c2)s1", "target-under-test": "MERTK (human) (UniProt Q12866)", "kinase still bound, per cent of control, %": 100}

# input For the compound COc1ccc(N(C(=O)Oc2cc(C(=O)Nc3cccc(C(F)(F)F)c3)ccc2C)c2ccnc(Nc3ccc(N4CCN(C)CC4)cc3)n2)c(OC)c1 , report kinase still bound, per cent of control.
# output 1.2

# input For the compound COc1cc(C)c(Sc2cnc(NC(=O)c3ccc(CNC(C)C(C)C)cc3)s2)cc1C(=O)N1CCN(C(C)=O)CC1 (stereo not drawn) , report kinase still bound, per cent of control.
# output 3.2

# input For the compound C=CC(=O)Nc1ccc(C(=O)c2sc(Nc3ccc(N4CCN(C)CC4)cc3OC)nc2N)cc1 , report kinase still bound, per cent of control.
# output 100

# input For the compound COc1cc2c(Nc3ccc(NC(=O)c4ccccc4)cc3)ncnc2cc1OCCCN1CCOCC1 , report kinase still bound, per cent of control.
# output 2.4

# input For the compound O=c1[nH]c2ccccc2n1C1CCN(Cc2ccc(-c3nc4cc5[nH]cnc5cc4nc3-c3ccccc3)cc2)CC1 , report kinase still bound, per cent of control.
# output 95

# input For the compound CCN(CCO)CCCOc1ccc2c(Nc3cc(CC(=O)Nc4cccc(F)c4)[nH]n3)ncnc2c1 , report kinase still bound, per cent of control.
# output 77

====

Target: TRPM6 (human) (UniProt Q9BX84)
Sequence (Q9BX84 whole entry, looked up): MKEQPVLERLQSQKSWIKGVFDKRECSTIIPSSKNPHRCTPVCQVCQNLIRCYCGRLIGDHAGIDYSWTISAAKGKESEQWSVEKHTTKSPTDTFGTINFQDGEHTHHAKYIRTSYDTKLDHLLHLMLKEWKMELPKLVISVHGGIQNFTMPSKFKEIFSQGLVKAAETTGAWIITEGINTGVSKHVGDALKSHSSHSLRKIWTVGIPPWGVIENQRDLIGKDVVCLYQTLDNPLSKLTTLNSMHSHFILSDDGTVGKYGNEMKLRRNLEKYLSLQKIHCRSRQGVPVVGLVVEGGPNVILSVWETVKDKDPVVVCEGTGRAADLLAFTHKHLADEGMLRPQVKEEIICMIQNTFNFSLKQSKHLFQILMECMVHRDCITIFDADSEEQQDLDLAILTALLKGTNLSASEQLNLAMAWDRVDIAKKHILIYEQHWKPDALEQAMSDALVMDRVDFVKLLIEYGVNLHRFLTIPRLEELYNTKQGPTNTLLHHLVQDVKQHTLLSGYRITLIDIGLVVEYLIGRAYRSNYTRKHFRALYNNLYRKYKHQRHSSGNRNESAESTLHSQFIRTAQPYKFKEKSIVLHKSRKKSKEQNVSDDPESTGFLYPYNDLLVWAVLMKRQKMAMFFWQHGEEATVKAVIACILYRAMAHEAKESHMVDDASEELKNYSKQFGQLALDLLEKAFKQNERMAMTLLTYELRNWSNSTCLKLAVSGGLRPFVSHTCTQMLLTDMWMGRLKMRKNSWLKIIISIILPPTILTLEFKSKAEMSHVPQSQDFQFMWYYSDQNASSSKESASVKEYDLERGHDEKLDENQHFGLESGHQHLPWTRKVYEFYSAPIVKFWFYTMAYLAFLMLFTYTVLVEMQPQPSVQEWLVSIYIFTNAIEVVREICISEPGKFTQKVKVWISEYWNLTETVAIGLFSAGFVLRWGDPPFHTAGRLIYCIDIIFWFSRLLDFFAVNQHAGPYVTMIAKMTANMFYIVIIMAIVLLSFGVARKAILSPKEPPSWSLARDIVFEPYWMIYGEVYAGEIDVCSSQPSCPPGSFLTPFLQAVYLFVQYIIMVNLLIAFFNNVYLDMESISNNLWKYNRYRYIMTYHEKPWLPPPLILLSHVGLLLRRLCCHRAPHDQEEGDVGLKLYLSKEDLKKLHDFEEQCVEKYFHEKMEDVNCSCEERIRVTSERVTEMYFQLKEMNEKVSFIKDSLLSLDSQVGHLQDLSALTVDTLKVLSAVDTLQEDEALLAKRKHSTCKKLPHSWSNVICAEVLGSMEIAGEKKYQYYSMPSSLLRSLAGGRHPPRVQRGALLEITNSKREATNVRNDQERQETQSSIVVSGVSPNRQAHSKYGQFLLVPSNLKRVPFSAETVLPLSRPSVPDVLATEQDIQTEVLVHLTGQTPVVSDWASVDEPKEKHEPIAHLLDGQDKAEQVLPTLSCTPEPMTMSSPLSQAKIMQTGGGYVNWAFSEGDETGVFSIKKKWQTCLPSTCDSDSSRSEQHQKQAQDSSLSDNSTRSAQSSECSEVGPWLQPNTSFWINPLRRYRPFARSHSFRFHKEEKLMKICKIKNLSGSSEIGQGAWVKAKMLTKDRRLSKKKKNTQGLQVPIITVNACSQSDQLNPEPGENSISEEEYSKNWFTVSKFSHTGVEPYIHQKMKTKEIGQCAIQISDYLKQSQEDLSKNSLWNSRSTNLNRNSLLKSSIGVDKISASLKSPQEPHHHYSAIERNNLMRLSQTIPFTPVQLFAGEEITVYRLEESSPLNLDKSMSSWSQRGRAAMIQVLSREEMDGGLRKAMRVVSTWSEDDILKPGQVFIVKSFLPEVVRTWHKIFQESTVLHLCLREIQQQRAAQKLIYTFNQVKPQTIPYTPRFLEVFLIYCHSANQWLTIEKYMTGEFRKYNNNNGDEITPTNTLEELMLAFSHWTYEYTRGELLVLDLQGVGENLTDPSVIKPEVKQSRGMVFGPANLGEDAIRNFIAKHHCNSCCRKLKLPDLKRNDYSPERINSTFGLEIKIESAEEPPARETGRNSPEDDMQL
Assay: KINOMEscan competition binding
Conditions: compound 10.0 µM
Please respond with Y when measured kinase still bound, per cent of control is strictly beneath 90%, and with N in all other cases.

# input Consider the molecule CC1=C(C(=O)Nc2cc3cn[nH]c3cc2F)C(c2ccc(C(F)(F)F)cc2)CC(=O)N1 (centres undefined) . Is its kinase still bound, per cent of control strictly less than 90%?
# output Y

# input Consider the molecule O=c1[nH]c2ccccc2n1C1CCN(Cc2ccc(-c3nc4cc5[nH]cnc5cc4nc3-c3ccccc3)cc2)CC1 . Is its kinase still bound, per cent of control strictly less than 90%?
# output Y

# input Consider the molecule C=CC(=O)Nc1ccc(C(=O)c2sc(Nc3ccc(N4CCN(C)CC4)cc3OC)nc2N)cc1 . Is its kinase still bound, per cent of control strictly less than 90%?
# output Y

# input Consider the molecule CCc1nc(-c2cccc(C)c2)c(-c2ccnc(NC(=O)c3ccccc3)c2)s1 . Is its kinase still bound, per cent of control strictly less than 90%?
# output N

# input Consider the molecule CCCS(=O)(=O)Nc1ccc(F)c(C(=O)c2c[nH]c3ncc(Cl)cc23)c1F . Is its kinase still bound, per cent of control strictly less than 90%?
# output N

# input Consider the molecule CCN1CCN(Cc2ccc(NC(=O)c3ccc(C)c(/C=C/c4cnc5[nH]ccc5c4OC)c3)cc2C(F)(F)F)CC1 . Is its kinase still bound, per cent of control strictly less than 90%?
# output N

# input Consider the molecule N#C/C(=C1/Nc2ccccc2S1)c1ccnc(NCCc2cccnc2)n1 . Is its kinase still bound, per cent of control strictly less than 90%?
# output N

# input Consider the molecule COc1cc2c(Nc3ccc(NC(=O)c4ccccc4)cc3)ncnc2cc1OCCCN1CCOCC1 . Is its kinase still bound, per cent of control strictly less than 90%?
# output N
